- Tested on: BT-474
- conditionContext: 72 h
measuredAttribute: EC50, CellTiter-Blue viability (nM)

I: O=C(Nc1cccnc1)N1CCC(Cc2cccc(Oc3ccc(C(F)(F)F)cn3)c2)CC1
II: O=C(/C=C/c1cccc(S(=O)(=O)Nc2ccccc2)c1)NO
III: CO[C@H]1C[C@@H]2CC[C@@H](C)[C@@](O)(O2)C(=O)C(=O)N2CCCC[C@H]2C(=O)O[C@H]([C@H](C)C[C@@H]2CC[C@@H](OP(C)(C)=O)[C@H](OC)C2)CC(=O)[C@H](C)/C=C(\C)[C@@H](O)[C@@H](OC)C(=O)[C@H](C)C[C@H](C)/C=C/C=C/C=C/1C
Order each entry by recorded EC50, CellTiter-Blue viability, climbing from the minimum. Answer by listing the labels in the requested order.
III, II, I
(III: 0.55 nM, II: 889 nM, I: 8600 nM)

* * *

- Test system: DU-4475
- assayMethodText: normalised viability (% of control), CellTiter-Blue; higher = more viable cells (about 100 = DMSO control)
- conditionContext: 10 nM; incubation time: 72 h
measuredAttribute: normalised viability (%)
Write the number in % without appending the unit.

Form field: reported normalised viability of C=C1C[C@@H]2[C@H](CC[C@]3(C)C(=O)CC[C@@H]23)[C@@]2(C)C=CC(=O)C=C12
91.1

For c1ccc2c(CCNc3ccc(Nc4ccncc4)cc3)c[nH]c2c1 then?
103

* * *

- Tested on: MCF-10A
- assayMethodText: drug sensitivity score (DSS), CellTiter-Glo (DSS (AUC-based score)); higher = stronger drug effect (viability inhibition or cytotoxicity); extreme values may be limits of the assay
- conditionContext: incubation time: 72 h
Measured drug sensitivity score, listed per entry.
// return a plain number; no unit text

{"molecule": "CO[C@H]1C[C@@H]2CC[C@@H](C)[C@@](O)(O2)C(=O)C(=O)N2CCCC[C@H]2C(=O)O[C@H]([C@H](C)C[C@@H]2CC[C@@H](OP(C)(C)=O)[C@H](OC)C2)CC(=O)[C@H](C)/C=C(\\C)[C@@H](O)[C@@H](OC)C(=O)[C@H](C)C[C@H](C)/C=C/C=C/C=C/1C", "measuredAttribute": "drug sensitivity score", "value": 0}
{"molecule": "COCC1(CO)C(=O)C2CCN1CC2 (stereo not drawn)", "measuredAttribute": "drug sensitivity score", "value": 0}

Form field: reported drug sensitivity score of NC(=O)c1ccc(I)c([N+](=O)[O-])c1
0

For COc1cc2c(NC3CCN(C(C)C)CC3)nc(N3CCC(F)(F)CC3)nc2cc1OCCCN1CCCC1 then?
3.66

* * *

- Tested on: BT-549
- assayMethodText: drug sensitivity score (DSS), CellTiter-Blue viability (DSS (AUC-based score)); higher = stronger viability inhibition; extreme values may be limits of the assay
- conditionContext: incubation time: 72 h
measuredAttribute: drug sensitivity score
// return a plain number; no unit text

Example compounds with recorded drug sensitivity score:
{"compound": "S=P(N1CC1)(N1CC1)N1CC1", "value": 0}
{"compound": "O=P1(N(CCCl)CCCl)NCCCO1 (centres undefined) [Cyclophosphamide]", "value": 0}
{"compound": "N#Cc1ccc(COC[C@H]2O[C@@H](n3c(NCc4ccc(Cl)c(Cl)c4)nc4c(N)ncnc43)[C@H](O)[C@@H]2O)cc1", "value": 4.23}

Okay, now this compound:
What value of drug sensitivity score on BT-549 does COC(=O)c1ccc2c(c1)NC(=O)/C2=C(\Nc1ccc(N(C)C(=O)CN2CCN(C)CC2)cc1)c1ccccc1 have?
3.02

* * *

- System: CAL-51
- assayMethodText: drug sensitivity score (DSS), CellTox Green (DSS (AUC-based score)); higher = stronger drug effect (viability inhibition or cytotoxicity); extreme values may be limits of the assay
- conditionContext: incubation time: 72 h
Measured drug sensitivity score, listed per entry.
// return a plain number; no unit text

Example molecules with recorded drug sensitivity score:
{"molecule": "Cc1cc(Nc2cc(CN3CCOCC3)c3nc(C)c(Cc4ccc(Cl)cc4F)n3n2)n[nH]1", "measuredAttribute": "drug sensitivity score", "value": 7.6}
{"molecule": "COc1cc2/c(=N/c3ccc(Br)cc3F)nc[nH]c2cc1OCC1CCN(C)CC1", "measuredAttribute": "drug sensitivity score", "value": 0}
{"molecule": "O=C(/C=C/c1cccc(S(=O)(=O)Nc2ccccc2)c1)NO", "measuredAttribute": "drug sensitivity score", "value": 13}
{"molecule": "Cc1[nH]c2ccccc2c1CCNCc1ccc(/C=C/C(=O)NO)cc1", "measuredAttribute": "drug sensitivity score", "value": 18.2}

Form field: reported drug sensitivity score of CNC(=O)c1ccc(N2C(=S)N(c3ccc(C#N)c(C(F)(F)F)c3)C(=O)C23CCC3)cc1F
0

For CNC(=O)c1ccc(N2C(=S)N(c3ccc(C#N)c(C(F)(F)F)c3)C(=O)C2(C)C)cc1F [Enzalutamide] then?
0

* * *

- System: SK-BR-3
- assayMethodText: drug sensitivity score (DSS), CellTiter-Blue viability (DSS (AUC-based score)); higher = stronger viability inhibition; extreme values may be limits of the assay
- conditionContext: incubation time: 72 h
measuredAttribute: drug sensitivity score
// return a plain number; no unit text

{"smilesCode": "COC(=O)c1ccc2c(c1)NC(=O)/C2=C(\\Nc1ccc(N(C)C(=O)CN2CCN(C)CC2)cc1)c1ccccc1", "measuredAttribute": "drug sensitivity score", "value": 2.7}

What value of drug sensitivity score on SK-BR-3 does CO[C@H]1C[C@@H]2CC[C@@H](C)[C@@](O)(O2)C(=O)C(=O)N2CCCC[C@H]2C(=O)O[C@H]([C@H](C)C[C@@H]2CC[C@@H](OP(C)(C)=O)[C@H](OC)C2)CC(=O)[C@H](C)/C=C(\C)[C@@H](O)[C@@H](OC)C(=O)[C@H](C)C[C@H](C)/C=C/C=C/C=C/1C have?
16.8

For Oc1ccc2c(c1)CC[C@H](c1ccccc1)[C@@H]2c1ccc(OCCN2CCCC2)cc1 then?
0

* * *

Measured drug sensitivity score, listed per entry.
- Tested on: HCC1599
- assayMethodText: drug sensitivity score (DSS), CellTiter-Glo (DSS (AUC-based score)); higher = stronger drug effect (viability inhibition or cytotoxicity); extreme values may be limits of the assay
- conditionContext: incubation time: 72 h
// return a plain number; no unit text

{"compound": "COc1cc2c(NC3CCN(C(C)C)CC3)nc(N3CCC(F)(F)CC3)nc2cc1OCCCN1CCCC1 [UNC0642]", "value": 0}
{"compound": "COc1cc(O)c2c(c1)/C=C/C[C@H](O)[C@H](O)C(=O)/C=C\\C[C@H](C)OC2=O [(5Z)-7-Oxozeaenol]", "value": 3.26}
{"compound": "CNC(=O)c1cccc(-c2ccc3c(N4CCOC[C@@H]4C)nc(N4CCOC[C@@H]4C)nc3n2)c1 [AZD2014]", "value": 0.92}

Okay, now this compound:
Form field: reported drug sensitivity score of COCC[n+]1c2c(n(Cc3cnccn3)c1C)C(=O)c1ccccc1C2=O [YM155]
35.3

* * *

- System: BT-474
- assayMethodText: normalised response (% of control), CellTox Green; higher = less cell death (100 = DMSO, 0 = benzethonium chloride kill control)
- conditionContext: incubation time: 72 h
Measured normalised response, listed per entry.
Write the number in % without appending the unit.

{"compound": "Cc1ccc(NC(=O)c2ccc(CN3CCN(C)CC3)cc2)cc1Nc1nc(-c2cccnc2)cs1 [Masitinib] (100 nM)", "normalised response [%]": 95.3}
{"compound": "CCn1c(-c2nonc2N)nc2cnc(Oc3cccc(NC(=O)c4ccc(OCCN5CCOCC5)cc4)c3)cc21 (10000 nM)", "normalised response [%]": 98}
{"compound": "COc1cc(O)c2c(c1)/C=C/C[C@H](O)[C@H](O)C(=O)/C=C\\C[C@H](C)OC2=O [(5Z)-7-Oxozeaenol] (1000 nM)", "normalised response [%]": 99}

What value of normalised response on BT-474 does CNC(=O)c1ccc(N2C(=S)N(c3ccc(C#N)c(C(F)(F)F)c3)C(=O)C23CCC3)cc1F [RD162] (1000 nM) have?
96.8

For CNC(=O)c1cc(Oc2ccc(NC(=O)Nc3ccc(Cl)c(C(F)(F)F)c3)c(F)c2)ccn1 [Regorafenib] (10000 nM) then?
82

For CNC(=O)c1cccc(-c2ccc3c(N4CCOC[C@@H]4C)nc(N4CCOC[C@@H]4C)nc3n2)c1 [AZD2014] (10000 nM) then?
96.4

For O=C(/C=C/c1cccc(S(=O)(=O)Nc2ccccc2)c1)NO [Belinostat] (100 nM) then?
96.7

For C=C1C[C@@H]2[C@H](CC[C@]3(C)C(=O)CC[C@@H]23)[C@@]2(C)C=CC(=O)C=C12 [Exemestane] (100 nM) then?
104

Measured values drawn from the supplement of paper PMC4862054 for this set.
